target: mushroom tyrosinase; construct: mushroom tyrosinase (Sigma T-7755); assay: Mushroom Tyrosinase Assay; assay type: biochemical; settings: Experiment 2; L-DOPA substrate, pH 7.0, absorbency 475 nm, vs ethanol control; read-out: IC50 (Concentration) Experiment 2
MEASURE: IC50 (nM)
Return type: number; implicit unit nM.

>>> print(df.to_string())
                 compound  measure  value_reported
0  Oc1ccc(C2SCCCS2)c(O)c1     IC50            1000
1   Oc1ccc(C2SCCS2)c(O)c1     IC50            2500

// CCc1ccc(O)cc1O [4-Ethyl Resorcinol, reference compound] : IC50 value = 400
